Endpoint summary: Ki, system: Aurora kinase A (Homo sapiens, UniProt O14965), multiple sources combined.

Previously resolved entries follow.
- Molecule: "FC(F)(F)c1ccccc1-c1nc(Nc2n[nH]c3ccc(Br)cc23)c2ccccc2n1"
  Ki: "100 to 1000 nM"
- Molecule: "Cn1cc(Nc2ncc(Cl)c(N[C@H]3[C@@H](C(N)=O)C[C@H]4C[C@@H]3C4(C)C)n2)cn1"
  Ki: "< 100 nM"
- Molecule: "Nc1nn2cc(-c3ccc(CN4CC[C@H](N)C4)cc3)cnc2c1-c1ccccn1"
  Ki: "< 500 nM"
- Molecule: "CCc1cc(Nc2nc(-c3ccccc3)nc3ccccc23)[nH]n1"
  Ki: "< 100 nM"
- Molecule: "Cc1nc(C)c(-c2ccnc(Nc3ccc(N4CCCC4)nc3)n2)s1"
  Ki: "120 nM"
- Molecule: "CCn1cc(Nc2ncc(C(F)(F)F)c(N[C@@H]3[C@H](C(=O)NCCO)[C@H]4C=C[C@@H]3C4)n2)cn1.CCn1cc(Nc2ncc(C(F)(F)F)c(N[C@H]3[C@@H](C(=O)NCCO)[C@@H]4C=C[C@H]3C4)n2)cn1 (mixture of isomers)"
  Ki: "< 100 nM"

Next:
Return Ki measured with Aurora kinase A (Homo sapiens, UniProt O14965) given this molecule: "c1ccc(OCc2nc(Nc3cc(C4CC4)[nH]n3)c3ccccc3n2)cc1"
< 100 nM
